All figures here come from ChEMBL document CHEMBL5576065.

# test.target: UniProt Q92743
pIC50: −log10 of the molar value.
Everything with pIC50 lower than 6 is f; everything else, including exactly 6, is t.

stdin: Is reported pIC50 greater than or equal to 6 here: "CC(C)C[C@H](NC(=O)[C@H](Cc1cccc(Cl)c1)NC(=O)C(C)(C)Cc1ccccc1)C(=O)N[C@H](B(O)O)C1CCC1"
stdout: t

###

# test.target: Serine protease HTRA1 (Homo sapiens)
# Sequence (Q92743 whole entry): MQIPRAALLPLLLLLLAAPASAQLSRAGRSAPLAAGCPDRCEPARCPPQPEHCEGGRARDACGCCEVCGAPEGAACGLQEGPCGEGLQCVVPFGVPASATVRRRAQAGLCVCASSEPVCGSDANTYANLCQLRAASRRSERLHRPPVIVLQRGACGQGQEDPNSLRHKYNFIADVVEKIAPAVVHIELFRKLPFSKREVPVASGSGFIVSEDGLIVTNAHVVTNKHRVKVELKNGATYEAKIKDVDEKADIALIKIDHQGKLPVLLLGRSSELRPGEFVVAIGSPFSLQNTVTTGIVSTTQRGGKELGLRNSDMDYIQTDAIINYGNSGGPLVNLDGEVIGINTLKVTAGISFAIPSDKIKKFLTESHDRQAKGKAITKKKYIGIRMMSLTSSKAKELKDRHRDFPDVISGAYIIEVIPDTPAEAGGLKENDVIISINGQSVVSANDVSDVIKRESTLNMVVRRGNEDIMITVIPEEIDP
Values of IC50 strictly less than 90 nM map to MET, and values of at least 90 nM map to NOT MET.

stdin: Please state whether IC50 is below 90 nM for "CC(C)C[C@H](NC(=O)[C@H](Cc1cccc(Cl)c1)NC(=O)C(C)(C)Cc1ccccc1)C(=O)N[C@H](B(O)O)C(C)C"
stdout: MET
